Tested on: Streptococcus pyogenes
assay: Antibacterial activity against Streptococcus pyogenes MTCC 442 assessed as growth inhibition after 24 hrs by broth dilution assay
Type: functional
test-parameters: MTCC 442, 24 h
reported-metric: MIC (µg/mL)

These recorded examples may help you get a feel for the data.
# molecule, unit-label, MIC
rows = [
    ("N#Cc1c(-c2ccc(O)cc2)cc(-c2nc3ccccc3[nH]2)nc1N1C(=O)C(Cl)C1c1ccccc1 (stereo not drawn)", "µg/mL", 250),
    ("N#Cc1c(-c2ccc(Cl)cc2O)cc(-c2nc3ccccc3[nH]2)nc1N1C(=O)C(Cl)C1c1ccccc1 (stereo not drawn)", "µg/mL", 250),
    ("N#Cc1c(-c2cccc([N+](=O)[O-])c2)cc(-c2nc3ccccc3[nH]2)nc1N1C(=O)C(Cl)C1c1ccccc1 (stereo not drawn)", "µg/mL", 50),
    ("N#Cc1c(-c2ccc(Cl)cc2)cc(-c2nc3ccccc3[nH]2)nc1N1C(=O)C(Cl)C1c1ccccc1 (stereo not drawn)", "µg/mL", 25),
]

A: Cc1ccccc1-c1cc(-c2nc3ccccc3[nH]2)nc(N2C(=O)C(Cl)C2c2ccccc2)c1C#N (stereo not drawn)
B: Cc1cccc(-c2cc(-c3nc4ccccc4[nH]3)nc(N3C(=O)C(Cl)C3c3ccccc3)c2C#N)c1 (stereo not drawn)
Input line: Among A and B , whose measured MIC is the smaller figure? Refer to your chosen entry by its label in the reply.
Output line: B
(B: 250 µg/mL, A: 500 µg/mL)
